# experimental target: S1P1/EDG1 (Homo sapiens, UniProt P21453)
# Sequence (P21453 whole entry): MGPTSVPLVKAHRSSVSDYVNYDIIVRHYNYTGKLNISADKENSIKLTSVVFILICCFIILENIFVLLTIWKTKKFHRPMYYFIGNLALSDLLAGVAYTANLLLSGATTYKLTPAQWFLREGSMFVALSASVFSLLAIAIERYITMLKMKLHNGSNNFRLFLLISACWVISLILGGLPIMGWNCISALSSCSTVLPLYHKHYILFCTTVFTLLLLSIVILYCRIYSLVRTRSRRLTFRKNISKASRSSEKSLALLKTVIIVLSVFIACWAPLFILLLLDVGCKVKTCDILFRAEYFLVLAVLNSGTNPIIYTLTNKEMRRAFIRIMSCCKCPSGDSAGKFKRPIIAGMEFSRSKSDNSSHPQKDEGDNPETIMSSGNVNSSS
# method summary: S1P1 CRE-bla CHOK1 reporter assay (inhibition of Forskolin induced cAMP)
# Assay type: cell-based
# protocol conditions: agonist activity range, S1P1 CRE-bla CHOK1 cells, 2 μM Forskolin; read-out: S1P1 ACTIVITY
pEC50: −log10 of the molar value.
measurement type: pEC50

Given item CC(C)Oc1ccc(-c2nc(-c3cccc4c3CCC[C@@H]4NCC(=O)O)no2)cc1C#N [Compound 53] , the value recorded as its pEC50 is 9.30 to 10.30

Measured pEC50, COCC(=O)N[C@H]1CCCc2c(-c3noc(-c4ccc(OC(C)C)c(C#N)c4)n3)cccc21 [Compound 24] : 9.30 to 10.30

compound CC(C)Oc1ccc(-c2nc(-c3cccc4c3CCC[C@@H]4NS(=O)(=O)CC(=O)N3CCC3)no2)cc1C#N [Compound 42] , pEC50 observed: > 10.30

Noted for CC(C)Oc1ccc(-c2nc(-c3cccc4c3CCC[C@H]4O)no2)cc1C#N [Compound 1] : its pEC50 reads 9.30 to 10.30

For reference, reported pEC50 for CCOc1ccc(Cc2nc(-c3cccc4c3CCC4NCCO)no2)cc1OCC (stereo not drawn) [Compound 61] stands at < 8.30

pEC50 measured on CC(C)Oc1ccc(-c2nc(-c3cccc4c3CCC[C@H]4NS(=O)(=O)CC(N)=O)no2)cc1C#N [Compound 39] = > 10.30

pEC50 reading for CC(C)Oc1ccc(-c2nc(-c3cccc4c3CCC[C@H]4NC(=O)N3CC(O)C3)no2)cc1C#N [Compound 7] : 9.30 to 10.30

The reported pEC50 of the compound CC(C)Oc1ccc(-c2nc(-c3cccc4c3CCC[C@@H]4N)no2)cc1C#N [Compound 4] was 9.30 to 10.30

pEC50 in this record for CC(C)Oc1ccc(-c2nc(-c3cccc4c3CCC[C@@H]4NC(=O)N3CCOCC3)no2)cc1C#N [Compound 15] : 9.30 to 10.30

* * *

For each record, write down the corresponding log10 of EC50.
# experimental target: S1P5 (Homo sapiens, UniProt Q9H228)
# Construct: Tango fusion (C)
# Sequence (Q9H228 whole entry, the tested form may be a part): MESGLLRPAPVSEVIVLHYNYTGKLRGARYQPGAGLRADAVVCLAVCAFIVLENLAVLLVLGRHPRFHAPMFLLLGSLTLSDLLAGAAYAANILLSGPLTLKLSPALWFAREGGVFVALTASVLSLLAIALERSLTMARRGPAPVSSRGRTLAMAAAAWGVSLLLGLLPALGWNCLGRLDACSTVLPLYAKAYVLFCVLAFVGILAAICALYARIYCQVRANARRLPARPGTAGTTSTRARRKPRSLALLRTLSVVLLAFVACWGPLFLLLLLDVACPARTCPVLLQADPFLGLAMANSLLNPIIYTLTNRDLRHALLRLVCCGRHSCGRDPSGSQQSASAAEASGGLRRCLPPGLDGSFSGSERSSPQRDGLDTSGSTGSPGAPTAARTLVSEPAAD
# method summary: Specificity over other S1P receptors: S1P5-bla TANGO U2OS
# protocol conditions: without Forskolin, read-out: S1P5 agonist value (EC50)
Response schema: value (number) is log10 of EC50 in units of nM.

Looking up CC(C)Oc1ccc(-c2nc(-c3cccc4c3CCC[C@H]4NS(=O)(=O)CCO)no2)cc1C#N [Compound 37] , I see its log10 of EC50 listed as 0.54

Field log10 of EC50 (entry COCCS(=O)(=O)N[C@H]1CCCc2c(-c3noc(-c4ccc(OC(C)C)c(C#N)c4)n3)cccc21 [Compound 33] ) reads 2.41

// CC(C)Oc1ccc(-c2nc(-c3cccc4c3CCC[C@@H]4NC(=O)N3CC(O)C3)no2)cc1C#N [Compound 8] : log10 of EC50 value = 2.04

Reported log10 of EC50 for CC(C)Oc1ccc(-c2nc(-c3cccc4c3CCC[C@@H]4NS(C)(=O)=O)no2)cc1C#N [Compound 29] was 1.58

The recorded log10 of EC50 for CC(C)Oc1ccc(-c2nc(-c3cccc4c3CCC[C@H]4NC(=O)N3CC[C@H](O)C3)no2)cc1C#N [Compound 13] is 1.89

According to the records, this compound CC(C)Oc1ccc(-c2nc(-c3cccc4c3CCC[C@@H]4NCCS(C)(=O)=O)no2)cc1C#N [Compound 49] displays log10 of EC50 of 1.98

* * *

Please go through the items and note down their pEC50.
# experimental target: S1P1/EDG1 (Homo sapiens)
# method summary: S1P1 CRE-bla CHOK1 reporter assay (inhibition of Forskolin induced cAMP)
# Format: cell-based
# protocol conditions: agonist activity range, S1P1 CRE-bla CHOK1 cells, 2 μM Forskolin; read-out: S1P1 ACTIVITY
pEC50: −log10 of the molar value.

Lab book: pEC50 of CC(C)Oc1ccc(-c2nc(-c3cccc4c3CCC[C@H]4NCCO)no2)cc1C#N noted as 9.30 to 10.30

Value of pEC50 reported for the compound CC(C)Oc1ccc(-c2nc(-c3cccc4c3CCC[C@H]4NC(=O)N3CCOCC3)no2)cc1C#N is 8.30 to 9.30

So for CC(C)Oc1ccc(-c2nc(-c3cccc4c3CCC[C@H]4N)no2)cc1C#N , the logged pEC50 turned out to be 8.30 to 9.30

// sample CC(C)Oc1ccc(-c2nc(-c3cccc4c3CCC[C@H]4NS(N)(=O)=O)no2)cc1C#N , its pEC50 was 9.30 to 10.30

Notebook: COCCS(=O)(=O)N[C@@H]1CCCc2c(-c3noc(-c4ccc(OC(C)C)c(C#N)c4)n3)cccc21 , pEC50 read as 9.30 to 10.30

Quick note, pEC50 for CC(C)Oc1ccc(-c2nc(-c3cccc4c3CCC[C@H]4NC(=O)N3CC[C@@H](N(C)C)C3)no2)cc1C#N landed at 8.30 to 9.30

So for CC(C)Oc1ccc(-c2nc(-c3cccc4c3CCC[C@H]4NCC(=O)N3CCCC3)no2)cc1C#N , the logged pEC50 turned out to be 8.30 to 9.30

The reported value for CC(C)Oc1ccc(-c2nc(-c3cccc4c3CCC[C@@H]4NCCO)no2)cc1C#N in terms of pEC50 is 9.30 to 10.30

* * *

# experimental target: S1P1/EDG1 (Homo sapiens, UniProt P21453)
# method summary: S1P1 CRE-bla CHOK1 reporter assay (inhibition of Forskolin induced cAMP)
# Assay type: cell-based
# protocol conditions: agonist activity range, S1P1 CRE-bla CHOK1 cells, 2 μM Forskolin; read-out: S1P1 ACTIVITY
pEC50: −log10 of the molar value.
Would you mind telling me the reported pEC50 of each entry?

Measured pEC50 of CC(C)Oc1ccc(-c2nc(-c3cccc4c3CCC[C@H]4NS(=O)(=O)CC(=O)O)no2)cc1C#N : > 10.30

For CC(C)Oc1ccc(-c2nc(-c3cccc4c3CCC[C@@H]4NS(=O)(=O)CC(=O)O)no2)cc1C#N the compound record lists pEC50 as > 10.30

Summary for this compound, CC(C)Oc1ccc(-c2nc(-c3cccc4c3CCC[C@H]4NC(=O)N(C)C)no2)cc1C#N : pEC50 is 9.30 to 10.30

Summary for this compound, CC(C)Oc1ccc(-c2nc(-c3cccc4c3CCC[C@H]4NC(=O)N3CCCC3)no2)cc1C#N : pEC50 is 9.30 to 10.30

// field: pEC50; key: CC(C)Oc1ccc(-c2nc(-c3cccc4c3CCC[C@H]4NS(=O)(=O)C3CC3)no2)cc1C#N ; value = 9.30 to 10.30

Item: CC(C)Oc1ccc(-c2nc(-c3ccc4[nH]ccc4c3)no2)cc1C#N | pEC50: 8.30 to 9.30

In plain terms, CC(C)Oc1ccc(-c2ncc(-c3cccc4c3CCC4N[C@H](C)CO)o2)cc1C#N (some centres unmarked) has a documented pEC50 of < 8.30

Entry CCOc1ccc(Cc2nc(-c3cccc4c3CCC4NCCS(=O)(=O)NC)no2)cc1OCC (centres unmarked) ; pEC50 = < 8.30

* * *

# experimental target: S1P1/EDG1 (Homo sapiens)
# method summary: S1P1 CRE-bla CHOK1 reporter assay (inhibition of Forskolin induced cAMP)
# Assay type: cell-based
# protocol conditions: S1P1 CRE-bla CHOK1 cells, 2 μM Forskolin; read-out: S1P1 agonist value (EC50)
measurement type: pEC50
Quick note: pEC50 values are minus log10 of concentrations in mol/L.

pEC50 measured on CC(C)Oc1ccc(-c2nc(-c3cccc4c3CCC[C@@H]4NC(=O)N3CC(O)C3)no2)cc1C#N = 9.84

pEC50 in this record for CC(C)Oc1ccc(-c2nc(-c3cccc4c3CCC[C@@H]4NCCS(C)(=O)=O)no2)cc1C#N : 9.98

COCCS(=O)(=O)N[C@H]1CCCc2c(-c3noc(-c4ccc(OC(C)C)c(C#N)c4)n3)cccc21 yielded pEC50 of 9.72

Recorded pEC50 (compound CC(C)Oc1ccc(-c2nc(-c3cccc4c3CCC[C@@H]4NS(C)(=O)=O)no2)cc1C#N ): 10.19

Just so you know, measured pEC50 for CC(C)Oc1ccc(-c2nc(-c3cccc4c3CCC[C@H]4NC(=O)N3CC[C@H](O)C3)no2)cc1C#N came out at 10.00

compound CC(C)Oc1ccc(-c2nc(-c3cccc4c3CCC[C@H]4NS(=O)(=O)CCO)no2)cc1C#N , pEC50 observed: 10.62

* * *

Answer each item with its documented pEC50.
# experimental target: S1P1/EDG1 (Homo sapiens)
# method summary: S1P1 CRE-bla CHOK1 reporter assay (inhibition of Forskolin induced cAMP)
# Type: cell-based
# protocol conditions: agonist activity range, S1P1 CRE-bla CHOK1 cells, 2 μM Forskolin; read-out: S1P1 ACTIVITY
pEC50: −log10 of the molar value.

Entry CC(C)Oc1ccc(-c2ncc(-c3cccc4c3CCC4O)o2)cc1C#N (stereo not shown) — recorded pEC50 = 8.30 to 9.30

Entry under test: CC(C)Oc1ccc(-c2nc(-c3cccc4c3CCC[C@H]4NS(=O)(=O)CC(=O)N(C)C)no2)cc1C#N . Its pEC50 was > 10.30

Reported pEC50 of CC(C)Oc1ccc(-c2nc(-c3cccc4c3CCC[C@@H]4NC(=O)N3CC(C(=O)O)C3)no2)cc1C#N : 9.30 to 10.30

// CCOc1ccc(Cc2nc(-c3cccc4c3CC[C@@H]4NCC(=O)N(C)C)no2)cc1OCC : pEC50 value = < 8.30

Record summary for CC(C)Oc1ccc(-c2nc(-c3cccc4c3CCC[C@@H]4O)no2)cc1C#N : reported pEC50 = > 10.30

pEC50 measured on CC(C)Oc1ccc(-c2nc(-c3cccc4c3CCC[C@@H]4NS(=O)(=O)CC(=O)N(C)C)no2)cc1C#N = > 10.30

Field pEC50 (entry CC(C)Oc1ccc(-c2nc(-c3cccc4c3CCC[C@@H]4NS(=O)(=O)CC(N)=O)no2)cc1C#N ) reads > 10.30

Per the records, this molecule ( CCOc1ccc(Cc2nc(-c3cccc4c3CCC4O)no2)cc1OCC (stereo not shown) ) has pEC50 equal to < 8.30

Recorded result, CC(C)Oc1ccc(-c2nc(-c3cccc4c3CCC[C@@H]4NC(=O)N3CCCC3)no2)cc1C#N , pEC50: 9.30 to 10.30

Please fill in: pEC50 reported for CC(C)Oc1ccc(-c2nc(-c3cccc4c3CCC[C@H]4NS(=O)(=O)CC(=O)N3CCC3)no2)cc1C#N = > 10.30

Please fill in: pEC50 reported for CC(C)Oc1ccc(-c2nc(-c3cccc4c3CCC[C@@H]4NCCS(C)(=O)=O)no2)cc1C#N = 9.30 to 10.30

The molecule listed as Cc1cnccc1-c1noc(-c2ccc(OC(C)C)c(C#N)c2)n1 shows pEC50 equal to > 10.30

The molecule identified as COCCS(=O)(=O)N[C@H]1CCCc2c(-c3noc(-c4ccc(OC(C)C)c(C#N)c4)n3)cccc21 registered its pEC50 at 9.30 to 10.30

Form: molecule = CC(C)Oc1ccc(-c2nc(-c3cccc4c3CCC[C@@H]4NS(N)(=O)=O)no2)cc1C#N ; pEC50 = > 10.30

Just so you know, measured pEC50 for CC(C)Oc1ccc(-c2nc(-c3cccc4c3CCC[C@@H]4NS(=O)(=O)CCO)no2)cc1C#N came out at > 10.30

# pEC50 of CC(C)Oc1ccc(-c2nc(-c3cccc4c3CCC[C@H]4NS(C)(=O)=O)no2)cc1C#N = 9.30 to 10.30
